tested on: HepG2; assay: cell viability relative to DMSO; higher = less toxic; details: 72 h; 10000 nM
Here the recorded cell viability is given for each entry.
Property Name: cell viability (%)

[
  {
    "Compound": "CSc1ccc(C(=O)N[C@@H]2CCCC[C@@H]2NC(=O)CNC(=O)c2cc(C(F)(F)F)ccc2NC(=O)NC(C)C)cc1 [BMS-CCR2-22]",
    "Value Unit": "%",
    "Value": 88
  },
  {
    "Compound": "CNC(=N)NC(=O)Nc1c(C)cccc1C [lidamidine]",
    "Value Unit": "%",
    "Value": 108
  },
  {
    "Compound": "CCCCCCCCCCCCCCCC(=O)OC[C@H](O)[C@H]1OC(=O)C(O)=C1O [L-ascorbyl-6-palmitate]",
    "Value Unit": "%",
    "Value": 97.7
  },
  {
    "Compound": "CC(N)CCCC(C)(C)O (centres undefined) [heptaminol]",
    "Value Unit": "%",
    "Value": 104
  },
  {
    "Compound": "O=c1[nH]c2ccccc2n1CCCN1CCN(C(c2ccccc2)c2ccccc2)CC1 [oxatomide]",
    "Value Unit": "%",
    "Value": 92.2
  },
  {
    "Compound": "Nc1ccn([C@@H]2O[C@H](CO)[C@@H](O)[C@@H]2O)c(=O)n1 [cytarabine]",
    "Value Unit": "%",
    "Value": 38.7
  },
  {
    "Compound": "CC(=O)[C@]1(N)Cc2c(O)c3c(c(O)c2[C@@H](O[C@H]2C[C@H](O)[C@H](O)CO2)C1)C(=O)c1ccccc1C3=O [amrubicin]",
    "Value Unit": "%",
    "Value": -0.2
  },
  {
    "Compound": "Cc1cccc(N(C)C(=S)Oc2ccc3ccccc3c2)c1 [tolnaftate]",
    "Value Unit": "%",
    "Value": 93.8
  },
  {
    "Compound": "C/C(=C(\\CCOP(=O)(O)O)SC(=O)c1ccccc1)N(C=O)Cc1cnc(C)nc1N [benfotiamine]",
    "Value Unit": "%",
    "Value": 97
  },
  {
    "Compound": "O=C(O)CCCCN(CCc1ccccc1OCc1ccc(CCc2ccccc2)cc1)Cc1ccc(C(=O)O)cc1 [cinaciguat]",
    "Value Unit": "%",
    "Value": 105
  },
  {
    "Compound": "CCCCNNC(=O)c1ccc(Br)cc1 [UF-010]",
    "Value Unit": "%",
    "Value": 61.5
  },
  {
    "Compound": "O=C1NC(=O)c2c1c1c3ccccc3[nH]c1c1[nH]c3ccccc3c21 [arcyriaflavin-a]",
    "Value Unit": "%",
    "Value": 47.4
  },
  {
    "Compound": "O=C1NC(=O)/C(=C/c2ccc3nccc(-c4ccncc4)c3c2)S1",
    "Value Unit": "%",
    "Value": 53.8
  },
  {
    "Compound": "CN(C(=O)CN(CCO)CC(=O)N(C)C(C)(C)Cc1ccccc1)C(C)(C)Cc1ccccc1 [oxethazaine]",
    "Value Unit": "%",
    "Value": 91.2
  },
  {
    "Compound": "Cc1cc2nc3c(=O)[nH]c(=O)nc-3n(C)c2cc1C=O [Ro-08-2750]",
    "Value Unit": "%",
    "Value": 37.1
  },
  {
    "Compound": "CC(C)CNc1nc(-c2cccc3ncccc23)cn2c(-c3ccc(C(=O)NC4CC4)cc3)cnc12 [Mps-BAY-2a]",
    "Value Unit": "%",
    "Value": 47.6
  },
  {
    "Compound": "CC1CCN(C(c2ccc(F)cc2)c2ccc(C(C)C(=O)O)cc2-c2ccc(C(F)(F)F)cc2)CC1 (centres undefined) [TC-E-5006]",
    "Value Unit": "%",
    "Value": 81.6
  },
  {
    "Compound": "Oc1ccc2c(c1)CC[C@H](c1ccccc1)[C@@H]2c1ccc(OCCN2CCCC2)cc1 [lasofoxifene]",
    "Value Unit": "%",
    "Value": 27.6
  },
  {
    "Compound": "N=C(N)NCCCC[C@@H]1NC(=O)CCSSC[C@@H](C(N)=O)NC(=O)[C@@H]2CCCN2C(=O)[C@H](Cc2c[nH]c3ccccc23)NC(=O)[C@H](CC(=O)O)NC(=O)CNC1=O [eptifibatide]",
    "Value Unit": "%",
    "Value": 95.5
  },
  {
    "Compound": "O=C(NC1(c2ccccc2)CC1)c1c(CN2CCC(N3CCCCC3)CC2)c(-c2cccc(C(F)(F)F)c2)nc2cc(Br)ccc12",
    "Value Unit": "%",
    "Value": 45.4
  },
  {
    "Compound": "CON(C)C(=O)[C@H](O)[C@H](Cc1ccccc1)NC(=O)c1cc2cc(Cl)ccc2[nH]1",
    "Value Unit": "%",
    "Value": 90.1
  },
  {
    "Compound": "CC(=O)O[C@]1(C(C)=O)CC[C@H]2[C@@H]3CCC4=CC(=O)CC[C@]4(C)[C@H]3CC[C@@]21C [hydroxyprogesterone-acetate]",
    "Value Unit": "%",
    "Value": 102
  },
  {
    "Compound": "COCCNC(=O)COc1ccc(OCCNC[C@H](O)COc2ccccc2)cc1 [ZD-7114]",
    "Value Unit": "%",
    "Value": 97.1
  },
  {
    "Compound": "CS(=O)(=O)CCNCc1ccc(-c2ccc3ncnc(Nc4ccc(OCc5cccc(F)c5)c(Cl)c4)c3c2)o1 [lapatinib]",
    "Value Unit": "%",
    "Value": 89.1
  },
  {
    "Compound": "C=CC1=C(C)C2=CC3=NC(=C(CC(=O)O)C4=NC(=C(C)C4=C(O)O)C=c4[nH]c(c(C)c4CC)=CC1=N2)C(CCC(=O)O)C3C (centres undefined) [chlorophyllin]",
    "Value Unit": "%",
    "Value": 106
  },
  {
    "Compound": "COC(=O)N1CC[C@@H]2[C@H]1CCC[C@@]2(O)C#Cc1cccc(C)c1 [mavoglurant]",
    "Value Unit": "%",
    "Value": 114
  },
  {
    "Compound": "CCCCCCCCCCCCCCOc1ccc(C(=O)O)o1 [KD-023]",
    "Value Unit": "%",
    "Value": 69.9
  },
  {
    "Compound": "CO[C@H]1/C=C\\C=C(/C)C(=O)NC2=CC(=O)C(NCCN(C)C)=C(C[C@@H](C)C[C@H](OC)[C@H](O)[C@@H](C)/C=C(\\C)[C@@H]1OC(N)=O)C2=O [alvespimycin]",
    "Value Unit": "%",
    "Value": -0.1
  },
  {
    "Compound": "Cc1oc(=O)oc1CN1CCN(c2cc3c(cc2F)c(=O)c(C(=O)O)c2n3C(C)S2)CC1 (centres undefined) [prulifloxacin]",
    "Value Unit": "%",
    "Value": 97.2
  }
]
